tested on: LOX cells; assay: Growth inhibition with or without nucleoside transport inhibitors; assay type: cell-based; details: Homo sapiens, +NBMPR 100 μM
measured-parameter: pIC50
Give bare numbers, as −log10 of the molar value.

Returns the measured pIC50 for the input compound. Input: Nc1ccn([C@@H]2O[C@H](CO)[C@@H](O)C2(F)F)c(=O)n1
5.94
